# TEST DESCRIPTION: physchem
# CONDITION LABEL: FaSSIF, 37 °C, pH 6.5, fassif, thermodynamic from solid
REPORTED METRIC: solubility at 24 h (µg/mL)
Supply the numeric figure in µg/mL, leaving out any unit text.

Q. # lookup: solubility at 24 h of C#CCOc1ccc(/C=C/C(=O)Nc2ccccc2C(=O)O)cc1OC [Free form]
A. 103

----------
Quick list: F (fraction absorbed, bioavailability) per entry.
# TEST DESCRIPTION: Oral pharmacokinetic study in Sprague-Dawley rats
# CONDITION LABEL: rat, single oral dose 20 mg/kg; based on AUCInf
Field: numeric (%). Do not append units.

Below, each entry is followed by its recorded F (fraction absorbed, bioavailability) result.
> print(dat)
                                   compound  unit.of.measure  quantitative.result
1  C#CCOc1ccc(/C=C/C(=O)Nc2ccccc2C(=O)O)cc1OC.CC(C)(C)N [tert-Butylamine (TBA) salt]                %                   59
2  C#CCOc1ccc(/C=C/C(=O)Nc2ccccc2C(=O)[O-])cc1OC.[K+] [Potassium salt]                %                   51
3  C#CCOc1ccc(/C=C/C(=O)Nc2ccccc2C(=O)O)cc1OC.N [Ammonium salt]                %                   64

Please find the next compound below.
Q. // returns reported F (fraction absorbed, bioavailability) for input C#CCOc1ccc(/C=C/C(=O)Nc2ccccc2C(=O)O)cc1OC.NC(CO)(CO)CO [Tris salt]
A. 51
